# test_conditions: 308.15 K; 16310 kPa; Liquid; Vibrating tube method
Hi there, I'd appreciate the recorded mass density for every entry that follows.
Answers are plain numbers, in kg/m3.

Some compounds with known mass density results, for comparison:
c1ccncc1: 978.9
Cc1ccccn1: 941.9
Cc1cccnc1: 953.6

Could you now look at the following compound, please?
# input Recorded mass density for "Cc1ccncc1" , please?
# output 951.5

----------
Hi there, I'd appreciate the recorded mass density for every entry that follows.
# test_conditions: 318.15 K; 34550 kPa; Liquid; Vibrating tube method
Give bare numbers, in kg/m3.

Some compounds with known mass density results, for comparison:
Cc1cccnc1: 956.2
Cc1ccccn1: 944.9
Cc1ccncc1: 954

# input Recorded mass density for "c1ccncc1" , please?
# output 981.4

Reference source: the NIST ThermoML archive (doi:10.1016/j.jct.2009.07.006)
